test system: RXF 393; experiment: NCI tumour cell line growth inhibition, 48 h
The source made the active and inactive calls. Rule as the data show it: active = GI50 up to about 1.1 µM and inactive = higher.
# GI50 annotations

compound	GI50
CNCc1cc(OC)ccc1-c1ccc(OC)c(OC)c1OC	69.7 µM (inactive)
Cc1nn(-c2ccccc2)c2c1CC(=O)Nc1ccccc1-2	0.313 µM (active)
O=C1C(Cl)C(c2cccc(O)c2)N1n1cnc2ccccc2c1=O (centres undefined)	> 100 µM (inactive)
CNc1cccc2c1C(C)C[C@]1(C)C(=O)Nc3ccccc3[C@H]21 (some centres undefined)	23.2 µM (inactive)
N#C/C(=C/n1c(=S)[nH]c2ccccc21)C(N)=O	> 100 µM (inactive)
Cc1c2oc(=O)c(C#N)cc2c2ccccn12	> 100 µM (inactive)
COc1ccc(-c2nc(SCC(=O)NNC(=S)Nc3ccccc3)[nH]c2-c2ccc(OC)cc2)cc1	16.9 µM (inactive)
COc1ccc2[nH]c3c(C)c4c(c(C)c3c2c1)CN(C)CC4	19.3 µM (inactive)
CC(=O)OC1=NN=C2COC(c3ccccc3OC(C)=O)=NN2C1	> 50 µM (inactive)
CCCc1nc2c(n1CC)C(=O)c1ccccc1C2=O	26.9 µM (inactive)
O=c1[nH]/c(=C/c2ccc(OCc3ccccc3)cn2)c(=O)[nH]/c1=C/c1ccccc1	0.0951 µM (active)
CC1(C)CC(=O)C=C(NC(=O)c2ccccc2)C1	> 100 µM (inactive)
CC1=C(C(=O)OCc2ccncc2)C(C2=C(C)SCCS2)C(C(=O)OCc2ccncc2)=C(C)N1	12 µM (inactive)
CC(=O)O/N=C(/C)c1ccccc1O	> 100 µM (inactive)
O=C1CCSCCC(=O)Nc2ccccc2N1	> 100 µM (inactive)
C[N+](C)([O-])CCCNc1ccnc2cccc([N+](=O)[O-])c12	18.7 µM (inactive)
N#Cc1cccc(C2C(=O)c3ccc(C(=O)c4ccc5c(c4)C(=O)N(c4ccc(Oc6ccc(N7C(=O)c8ccc(C(=O)c9ccc%10c(c9)C(=O)N(c9cccc(C#N)c9)C%10=O)cc8C7=O)cc6)cc4)C5=O)cc3C2=O)c1 (centres undefined)	> 100 µM (inactive)
Cc1ccc(C2CC(c3ccco3)=NN2c2ccccc2)o1 (centres undefined)	> 100 µM (inactive)
CN(C)c1nc(N(C)C)n2nc(-c3ccccc3[N+](=O)[O-])nc2n1	> 100 µM (inactive)

###

system: DMS-114; test: NCI tumour cell line growth inhibition, 48 h
Structures can show the parent of a compound that is named as a salt. Calls of active or inactive are those of the source. Cut-off read from the data, not from the text of the source: active = GI50 up to about 1.1 µM and inactive = higher.
Outcomes: active, inactive

compound	assigned_label
CN(C)CCNC(=O)c1ccc(C(=O)NCCN(C)C)c2nc3ccccc3cc12	active
N=c1ccn2c(n1)O[C@H]1[C@H](O)[C@@H](CO)O[C@H]12 [ANCITABINE HYDROCHLORIDE]	active
CSC(=S)N(C)c1nc(N(C)C)s[s+]1	inactive
COc1ccc2cccc(C(=N)c3ccc(C)c4c3CCC4)c2c1	inactive
COc1cccc2c1CCc1ccccc1CC2=O	inactive
COc1cccc2c1C(=N)c1c(O)c3c(c(O)c1C2=O)C[C@@](O)(C(C)=O)C[C@@H]3OC1CC(N)C(O)C(C)O1 (stereo not given in full)	active
O=C(Oc1ccc2c(-c3ccccc3)c(C(=O)Nc3ccc(Cl)cc3)c(=O)oc2c1)c1ccccc1	inactive
O=C(N/C(=C\c1ccc(/C=C(\NC(=O)c2ccccc2)c2nc3ccccc3s2)cc1)c1nc2ccccc2s1)c1ccccc1	inactive
C[n+]1ccc(Nc2ccc(NC(=O)c3ccc(Nc4cc[n+](C)c5ccc([N+](=O)[O-])cc45)cc3[N+](=O)[O-])cc2)cc1	active
Cc1cc2c3ccccc3n3c2c2c1OC1(C)CCC(C2C1)C3(C)C (stereo not given)	inactive
CC#CC#C/C=C1\C=CC2(OC=CC2O)O1 (stereo not given)	inactive
O=C(O)CSc1nnc(/C=C/c2ccccc2)[nH]1	inactive
CCCC(O)c1ccc2[nH]c3c(C)cc([N+](=O)[O-])c(C)c3c2c1 (stereo not given)	inactive
Cc1cccc(C)c1NC(=O)C(=O)C(C#N)c1ccccc1Cl (stereo not given)	inactive
C/N=C(\NC(=S)N(C)C)N(C)C	inactive
N[C@H](C(=O)O)[C@@H](Cl)CC(=O)O	inactive
COc1ccc2c(=O)cc(-c3ccc(OC)c(OC)c3OC)oc2c1	inactive
O=[N+]([O-])c1ccc2nc(/C(=N/Nc3ccccc3)C(O)c3ccco3)c(O)nc2c1 (stereo not given)	inactive
O=c1[nH]c(Br)nc2c(Br)c[nH]c12	inactive
COC(=O)c1cc(O)ccc1O [METHYL 2,5-DIHYDROXYBENZOATE]	inactive
CC(=O)OCc1cc(OC(C)=O)cnc1COC(C)=O	inactive
CCCCNC(=S)Nn1c(-c2ccccc2)nc2ccccc2c1=O	inactive
O=C1OC(=O)C2C1C1(c3ccccc3)OC2(c2ccccc2)c2c(Br)c(Br)c(Br)c(Br)c21 (stereo not given)	inactive
CCS(CC)(CC)CC1CCCC2=CCC(P(=O)(c3ccccc3)c3ccccc3)CC21 (stereo not given)	inactive
Fc1nc(F)nc(-c2c3ccccc3c3n2CCS3)n1	inactive

###

# GI50 values compiled below
tested on: SNB-75; test: NCI tumour cell line growth inhibition, 48 h
The source made the active and inactive calls. No stated cut-off is given here; in the data, active = GI50 up to about 1.1 µM and inactive = higher.
metric_name: GI50

compound	experimental_target	recorded_measurement
Cc1cccc(C)c1NC(=O)C(=O)C(C#N)c1ccccc1Cl (centres undefined)	SNB-75	> 100 µM (inactive)
Nc1nc(OCc2ccccc2)c2nc[nH]c2n1	SNB-75	24.8 µM (inactive)
N#Cc1cc(NC(=O)c2ccccc2)c(=O)n2c1[nH]c1ccccc12	SNB-75	25.9 µM (inactive)
Fc1nc(F)nc(-c2c3ccccc3c3n2CCS3)n1	SNB-75	22.8 µM (inactive)
CC(=O)OC1=NN=C2COC(c3ccccc3OC(C)=O)=NN2C1	SNB-75	15.8 µM (inactive)
CCC1CN2CCc3cc(OC)c(OC)cc3C2CC1CC1c2cc(OC)c(OC)cc2CCN1C(=O)C(N)Cc1ccccc1.[O-][Cl+3]([O-])([O-])O (centres undefined)	SNB-75	2.94 µM (inactive)
CN(C)CCNC(=O)c1ccc(C(=O)NCCN(C)C)c2nc3ccccc3cc12	SNB-75	1.71 µM (inactive)
CCOC(=O)C(C#N)C1=CC(=O)C(=O)c2ccc(OC)cc21 (centres undefined)	SNB-75	20.8 µM (inactive)
CC1C(OC2O[C@@H]3O[C@@]4(C)CC[C@H]5[C@H](C)CC[C@@H](C2C)[C@@]35O4)O[C@@H]2O[C@@]3(C)CC[C@H]4[C@H](C)CC[C@@H]1[C@@]24O3 (some centres undefined)	SNB-75	> 50 µM (inactive)
COc1ccccc1N(CN1C(=O)CCC1C(=O)O)C(C)=O (centres undefined)	SNB-75	> 100 µM (inactive)
O=C(/C=C/C=C/c1ccccc1)c1ccccc1	SNB-75	17.8 µM (inactive)
Cc1ccc(S(=O)(=O)Nc2cc(O)nc3c2CCC3)cc1	SNB-75	> 100 µM (inactive)
Cc1cc(C)nc(NS(=O)(=O)c2ccc(Nc3c4ccc(Cl)cc4nc4c(C(=O)NCCN(C)C)cccc34)cc2)n1	SNB-75	> 100 µM (inactive)
Cc1cc(/N=N/c2c(O)ccc3ccccc23)ccc1/N=N/c1cccc([N+](C)(C)C)c1	SNB-75	4 µM (inactive)
CC(=O)NC1=C(NCCCl)C(=O)c2ccccc2C1=O	SNB-75	24.3 µM (inactive)
O=C(NCCCCCCNC(=O)n1cc(F)c(=O)[nH]c1=O)NCCCOCCOCCOCCOCCOCCOCCOCCOCCOCCOCCOCCOCCOCCOCCOCCOCCOCCOCCOCCOCCOCCCNC(=O)C(O)C(O)C(OC1OC(CO)C(O)C(O)C1O)C(O)CO (centres undefined)	SNB-75	16.4 µM (inactive)
CC(=O)c1ccc2c(c1)oc(=O)n2CCN(C)C	SNB-75	21.7 µM (inactive)
O=C1Cc2c([nH]c3c(Br)cccc23)-c2ccccc2N1	SNB-75	33 µM (inactive)
COc1cccc([C@@H]2C/C(=N\NC(=O)C(=O)N[C@@H](C)c3ccccc3)c3ccccc3N2)c1	SNB-75	21.3 µM (inactive)

###

test system: RXF 631; assay: NCI tumour cell line growth inhibition, 48 h
Active and inactive are the calls of the source. Rule as the data show it: active = GI50 up to about 1.1 µM and inactive = higher.
Outcome codes: Yes (active), No (inactive)

molecule	assigned_label
COc1ccc2[nH]c3c(c2c1)CCN(C)CC3	No
CC1CC(=O)c2c(ccc3c2C(=O)c2cccc(O)c2C3=O)C1 (configuration not stated)	No
NCCCCCS(=O)(=O)O	No
COc1ccc2cccc(C(=N)c3ccc(C)c4c3CCC4)c2c1	No
CCCCN(CCCC)C(=O)C(=O)C(C(=O)C(=O)OC)c1nc2ccccc2o1 (configuration not stated)	No
COc1ccc(C[C@H](N)C(=O)NC2C(CO)OC(n3cnc4c(N(C)C)ncnc43)C2O)cc1 (some centres not stated)	Yes
COC(=O)C1(C(=O)OC)CC(=O)c2cc3c(cc2-c2c(cc(OC)c(OC)c2OC)C1)OCO3	No
